Source: PubChem BioAssay (NCI)

Tested on: SNB-75 CNS
Assay: NCI tumour cell line growth inhibition, 48 h

{"compound": "CCOC(=O)/C(=C\\NCc1ccc2c(c1)OCO2)c1nc2ccccc2[nH]1", "system-under-test": "SNB-75 CNS", "TGI": "> 100 µM"}
{"compound": "c1ccc2c(CC3NCCN3)cccc2c1", "system-under-test": "SNB-75 CNS", "TGI": "> 100 µM"}
{"compound": "Cc1cc(C(C)C)cc(O)c(=O)c1", "system-under-test": "SNB-75 CNS", "TGI": "> 100 µM"}
{"compound": "CC1(C)C2CCC13C(=O)C1OC3(C2)C2C(=O)N(c3ccccc3)C(=O)C12 (stereo unspecified)", "system-under-test": "SNB-75 CNS", "TGI": "> 100 µM"}
{"compound": "O=[N+]([O-])c1ccc2c(c1)C(=NO)c1cc([N+](=O)[O-])ccc1-2", "system-under-test": "SNB-75 CNS", "TGI": "75.8 µM"}
{"compound": "NC1=NS(=O)(=O)Nc2nc(-c3ccc(Cl)cc3)[nH]c21", "system-under-test": "SNB-75 CNS", "TGI": "> 100 µM"}

###

Tested on: 786-0 renal
Test: NCI tumour cell line growth inhibition, 48 h; in the data active = GI50 below about 0.43 µM; inactive = the rest
Labels: active, inactive

{"molecule": "CC(C)=CC(=O)OC1C(CO)OC(Oc2cc(O)c3c(=O)cc(-c4ccc(O)c(O)c4)oc3c2)C(OC2OC(C)C(O)C(O)C2O)C1O (stereo unspecified)", "assigned-label": "inactive"}
{"molecule": "C=C1C(=O)O[C@H]2[C@H]1CC/C(COC(=O)CCSSCCC(=O)OC/C1=C/CC[C@@]3(C)O[C@H]3[C@H]3OC(=O)C(=C)[C@@H]3CC1)=C\\CC[C@@]1(C)O[C@@H]21", "assigned-label": "inactive"}
{"molecule": "Cc1cc(N(CCNc2ccnc3cc(Cl)ccc23)Cc2cccs2)nc(Cl)n1", "assigned-label": "inactive"}
{"molecule": "CC(=O)OC1Oc2ccccc2-c2oc(=O)c(-c3ccc(F)cc3)cc21 (stereo unspecified)", "assigned-label": "inactive"}
{"molecule": "CCCCCCCC(=O)SCC/C=C/[C@@H]1CC(=O)NCc2cccc(n2)CN(Cc2ccc3ccccc3c2)CC(=O)N[C@@H](C(C)C)C(=O)O1", "assigned-label": "inactive"}
{"molecule": "OCc1ccc(N(Cc2ccc(F)cc2)CC2CC2)cc1Cl", "assigned-label": "inactive"}
{"molecule": "Cc1ccc(NC2=N[C@]34CC(=O)CC[C@]3(C)[C@H]3CC[C@]5(C)C(=O)CC[C@H]5[C@@H]3C[C@@H]4S2)c(C)c1", "assigned-label": "inactive"}
{"molecule": "[Cl-].[Nd+3].[O-]/N=C(\\c1ccccc1)c1ccccn1.[O-]/N=C(\\c1ccccc1)c1ccccn1.[O-]/N=C(\\c1ccccc1)c1ccccn1", "assigned-label": "inactive"}
{"molecule": "O=C(N/N=C/c1c(Cl)cccc1Cl)c1cccnc1Nc1cccc(C(F)(F)F)c1", "assigned-label": "inactive"}
{"molecule": "CN(C)CCCn1c2c(c3ccc(-c4ccn[nH]4)cc3c1=O)C(=O)c1ccccc1-2", "assigned-label": "active"}
{"molecule": "CC(=N\\O)/C(C)=N/O.CC(=N\\O)/C(C)=N/O.CC(=N\\O)/C(C)=N/O.CC(=N\\O)/C(C)=N/O.[CH3-].[CH3-].[Co].[Co]", "assigned-label": "inactive"}
{"molecule": "Cc1ccc(Cl)cc1-c1nc(N)nc(Nc2ccc(Br)cc2)n1", "assigned-label": "active"}
{"molecule": "CCCN(CCC)c1ccc(CO)c(Cl)c1", "assigned-label": "inactive"}
{"molecule": "Cc1cc(C2CC(O)C(CO)O2)c(Cl)cc1Cl (stereo unspecified)", "assigned-label": "inactive"}
{"molecule": "CCOC(=O)/C=C1/SC(N2CCCCC2)C(=O)N1CC (stereo unspecified)", "assigned-label": "inactive"}
{"molecule": "CCOC(=O)c1nnn(-c2no[n+]([O-])c2-c2ccc(OC)cc2)c1COc1cccc2cccnc12", "assigned-label": "inactive"}

###

Test system: HCT-116 colon
Experiment: NCI tumour cell line growth inhibition, 48 h; in the data active means GI50 below about 0.43 µM; inactive means the rest
Labels: class 1 = active, class 0 = inactive

{"molecule": "CN(C)CCCNCc1ccc(-c2ccc(F)c(Cl)c2)o1", "system-under-test": "HCT-116 colon", "assigned-label": "class 0"}
{"molecule": "C[n+]1c2ccccc2c(Nc2ccc(N3CCCCC3)cc2)c2[nH]c3ccccc3c21", "system-under-test": "HCT-116 colon", "assigned-label": "class 1"}
{"molecule": "CCC(=O)OC1CCC2C3CCC(=O)OC3C(C)(CCC(=O)O)CC12C (stereo not given)", "system-under-test": "HCT-116 colon", "assigned-label": "class 0"}
{"molecule": "CCOC(=O)/C=C1/SC(N2CCCCC2)C(=O)N1CC (stereo not given)", "system-under-test": "HCT-116 colon", "assigned-label": "class 0"}
{"molecule": "O=CN/N=C/c1ccc(Cl)c([N+](=O)[O-])c1", "system-under-test": "HCT-116 colon", "assigned-label": "class 1"}
{"molecule": "CCCN(CCC)c1ccc(CO)c(Cl)c1", "system-under-test": "HCT-116 colon", "assigned-label": "class 0"}
{"molecule": "O=Cc1cn(Cc2ccc(Cl)cc2)c2ccccc12", "system-under-test": "HCT-116 colon", "assigned-label": "class 0"}
{"molecule": "CC(=N\\O)/C(C)=N/O.CC(=N\\O)/C(C)=N/O.CC(=N\\O)/C(C)=N/O.CC(=N\\O)/C(C)=N/O.[CH3-].[CH3-].[Co].[Co]", "system-under-test": "HCT-116 colon", "assigned-label": "class 0"}
{"molecule": "Cc1ccc(NC2=N[C@]34CC(=O)CC[C@]3(C)[C@H]3CC[C@]5(C)C(=O)CC[C@H]5[C@@H]3C[C@@H]4S2)c(C)c1", "system-under-test": "HCT-116 colon", "assigned-label": "class 0"}
{"molecule": "Cc1nn(CCO)c(C)c1N=[N+]([O-])c1c(C)nn(CCO)c1C", "system-under-test": "HCT-116 colon", "assigned-label": "class 0"}
{"molecule": "COc1ccc2nc3cccc([N+](=O)[O-])c3c(NCCNCCO)c2c1", "system-under-test": "HCT-116 colon", "assigned-label": "class 1"}
{"molecule": "N#Cc1c(Br)n(C2OC(CO)C(O)C2O)c2ncn3ccnc3c12 (stereo not given)", "system-under-test": "HCT-116 colon", "assigned-label": "class 0"}
{"molecule": "Cc1cc(Nc2ccc3c(c2)OCO3)c2cc3c(cc2n1)OCO3", "system-under-test": "HCT-116 colon", "assigned-label": "class 0"}
{"molecule": "O=S(=O)(Nc1ccc(Cl)cc1)c1ccc(-c2cnc(C3CC3)o2)cc1", "system-under-test": "HCT-116 colon", "assigned-label": "class 1"}
{"molecule": "C(=C1c2ccccc2-c2ccccc21)c1ccncc1", "system-under-test": "HCT-116 colon", "assigned-label": "class 0"}
{"molecule": "Oc1cccc(-c2nc(-c3n[nH]c(=S)n3-c3ccccc3)cc3c2[nH]c2ccccc23)c1", "system-under-test": "HCT-116 colon", "assigned-label": "class 0"}
{"molecule": "Cc1cc(Oc2ccccc2)ccc1Nc1ncnc2ccc(-c3cnc(Cl)c(NS(C)(=O)=O)c3)cc12", "system-under-test": "HCT-116 colon", "assigned-label": "class 0"}
{"molecule": "Cn1cc(-c2ccc(-c3cn(C)c4ccc(Cl)cc34)[nH]2)c2cc(Cl)ccc21", "system-under-test": "HCT-116 colon", "assigned-label": "class 0"}
{"molecule": "O=C(N/N=C/c1cc(Cl)cc(Cl)c1[O-])c1ccccc1O.O=C(N/N=C/c1cc(Cl)cc(Cl)c1[O-])c1ccccc1O.[Cl-].[Fe+3]", "system-under-test": "HCT-116 colon", "assigned-label": "class 0"}
{"molecule": "COc1ccc2c(c1)NC(=O)CN2c1nc(NC2CC2)nc2ccccc12", "system-under-test": "HCT-116 colon", "assigned-label": "class 1"}

###

Tested on: MOLT-4 leukemia
Experiment: NCI tumour cell line growth inhibition, 48 h; in the data active = GI50 below about 0.43 µM; inactive = the rest
Labels: active, inactive

{"molecule": "COC(=O)C1=CN(CC2=CC(=O)C(C)=CC2=O)C=C(C(=O)OC)C1c1cc(OC)ccc1OC", "assigned-label": "inactive"}
{"molecule": "O=[N+]([O-])c1ccc2c(c1)C(=NO)c1cc([N+](=O)[O-])ccc1-2", "assigned-label": "inactive"}
{"molecule": "C=C1C(=O)O[C@H]2[C@H]1CC/C(COC(=O)/C=C\\C(=O)NCc1ccc(Cn3c(=O)sn(CCCI)c3=O)cc1)=C\\CC[C@@]1(C)O[C@@H]21", "assigned-label": "inactive"}
{"molecule": "CCCCCCCC(=O)SCC/C=C/[C@@H]1CC(=O)NCc2cccc(n2)CN(Cc2ccc3ccccc3c2)CC(=O)N[C@@H](C(C)C)C(=O)O1", "assigned-label": "inactive"}
{"molecule": "CC(=O)OC1Oc2ccccc2-c2oc(=O)c(-c3ccc(F)cc3)cc21 (configuration not stated)", "assigned-label": "inactive"}
{"molecule": "Cn1cc(-c2ccc(-c3cn(C)c4ccc(Cl)cc34)[nH]2)c2cc(Cl)ccc21", "assigned-label": "inactive"}
{"molecule": "N#CC1=C(N)Oc2c(ccc3ccccc23)C1c1cccs1 (configuration not stated)", "assigned-label": "active"}
{"molecule": "O=C(Nc1ccc([As]=[As]c2ccc(NC(=O)c3ccccc3)cc2)cc1)c1ccccc1 (configuration not stated)", "assigned-label": "active"}
{"molecule": "CCOC(=O)c1nnn(-c2no[n+]([O-])c2-c2ccc(OC)cc2)c1COc1cccc2cccnc12", "assigned-label": "inactive"}
{"molecule": "C[n+]1c2ccccc2c(Nc2ccc(N3CCCCC3)cc2)c2[nH]c3ccccc3c21", "assigned-label": "active"}
{"molecule": "O=S(=O)(Nc1ccc(Cl)cc1)c1ccc(-c2cnc(C3CC3)o2)cc1", "assigned-label": "inactive"}
{"molecule": "COc1ccc2nc3ccccc3c(NCc3ccc(Cl)cc3)c2c1", "assigned-label": "inactive"}
